# Tested system: human recombinant ALK1 (GST fused to ALK1 intracellular domain [His142-Gln503]) (Homo sapiens, UniProt P37023)
# Construct: GST fused to ALK1 intracellular domain [His142-Gln503]
# Run description: ALK1-Kinase Flashplate-Assay
# Experimental conditions: 0.5 μM ATP, biotinylated α-casein substrate; read-out: Assay 1 (ALK1-Kinase Flashplate-Assay IC50 class)
Where a name gives a salt, the structure may show the parent alone.
Consider the following molecules and their measured IC50 readings.
Observed property: IC50

>  <Molecule>
c1csc(-c2cnn3ccc(NC4CCCNC4)nc23)c1 (stereo not shown) [Example 496, mono TFA salt]

>  <Observed property>
IC50

>  <Measurement>
1 to 10 µM

$$$$
>  <Molecule>
COc1ccc(-c2cnn3ccc(Nc4ccc(N5CCOCC5)cc4)nc23)cc1OC

>  <Observed property>
IC50

>  <Measurement>
< 1 µM

$$$$
>  <Molecule>
Cc1ccc(Nc2ccn3ncc(-c4ccc(O)cc4)c3n2)cc1NS(C)(=O)=O

>  <Observed property>
IC50

>  <Measurement>
< 1 µM

$$$$
>  <Molecule>
OCCNc1ccn2ncc(-c3ccc(Cl)cc3)c2n1

>  <Observed property>
IC50

>  <Measurement>
1 to 10 µM

$$$$
>  <Molecule>
OCCNc1ccn2ncc(-c3ccc4c(c3)OCO4)c2n1

>  <Observed property>
IC50

>  <Measurement>
1 to 10 µM

$$$$
>  <Molecule>
Nc1cccc(-c2cnn3ccc(Nc4ccc(O)cc4)nc23)c1

>  <Observed property>
IC50

>  <Measurement>
1 to 10 µM

$$$$
>  <Molecule>
COc1ccc(-c2cnn3ccc(Nc4ccc5[nH]ccc5c4)nc23)cc1OC

>  <Observed property>
IC50

>  <Measurement>
< 1 µM

$$$$
>  <Molecule>
c1csc(-c2cnn3ccc(NC4CCCCC4)nc23)c1

>  <Observed property>
IC50

>  <Measurement>
1 to 10 µM

$$$$
>  <Molecule>
COc1ccc(Nc2ccn3ncc(-c4ccsc4)c3n2)cn1

>  <Observed property>
IC50

>  <Measurement>
1 to 10 µM

$$$$
>  <Molecule>
COc1cc(-c2cnn3ccc(NCc4cccnc4)nc23)cc(OC)c1OC

>  <Observed property>
IC50

>  <Measurement>
1 to 10 µM

$$$$
>  <Molecule>
FC(F)(F)c1cccc(-c2cnn3ccc(Nc4ccc(N5CCOCC5)nc4)nc23)c1

>  <Observed property>
IC50

>  <Measurement>
< 1 µM

$$$$
>  <Molecule>
COc1cc(-c2cnn3ccc(Nc4cc(OC)c(OC)c(OC)c4)nc23)ccc1O

>  <Observed property>
IC50

>  <Measurement>
1 to 10 µM

$$$$
>  <Molecule>
c1ccc(-c2cnn3ccc(NCc4cccnc4)nc23)cc1

>  <Observed property>
IC50

>  <Measurement>
1 to 10 µM

$$$$
>  <Molecule>
COc1cc(-c2cnn3ccc(Nc4cccc(Cl)c4)nc23)ccc1O

>  <Observed property>
IC50

>  <Measurement>
1 to 10 µM

$$$$
>  <Molecule>
CC(C)c1ccc(Nc2ccn3ncc(-c4cccc(C(N)=O)c4)c3n2)cc1

>  <Observed property>
IC50

>  <Measurement>
< 1 µM

$$$$
>  <Molecule>
Cn1cc(-c2cnn3ccc(Nc4ccc(O)cc4)nc23)cn1

>  <Observed property>
IC50

>  <Measurement>
1 to 10 µM

$$$$
>  <Molecule>
COc1ccc(-c2cnn3ccc(NCc4ccncc4)nc23)cc1

>  <Observed property>
IC50

>  <Measurement>
1 to 10 µM

$$$$
>  <Molecule>
Cc1ccc(Nc2ccn3ncc(-c4cccc(N)c4)c3n2)cc1NS(C)(=O)=O

>  <Observed property>
IC50

>  <Measurement>
1 to 10 µM

$$$$
>  <Molecule>
COc1cc(-c2cnn3ccc(NC4CCC(O)CC4)nc23)ccc1O (stereo not shown)

>  <Observed property>
IC50

>  <Measurement>
1 to 10 µM

$$$$

* * *

# Tested system: human recombinant ALK1 (GST fused to ALK1 intracellular domain [His142-Gln503]) (Homo sapiens, UniProt P37023)
# Construct: GST fused to ALK1 intracellular domain [His142-Gln503]
# Sequence (P37023 142-503): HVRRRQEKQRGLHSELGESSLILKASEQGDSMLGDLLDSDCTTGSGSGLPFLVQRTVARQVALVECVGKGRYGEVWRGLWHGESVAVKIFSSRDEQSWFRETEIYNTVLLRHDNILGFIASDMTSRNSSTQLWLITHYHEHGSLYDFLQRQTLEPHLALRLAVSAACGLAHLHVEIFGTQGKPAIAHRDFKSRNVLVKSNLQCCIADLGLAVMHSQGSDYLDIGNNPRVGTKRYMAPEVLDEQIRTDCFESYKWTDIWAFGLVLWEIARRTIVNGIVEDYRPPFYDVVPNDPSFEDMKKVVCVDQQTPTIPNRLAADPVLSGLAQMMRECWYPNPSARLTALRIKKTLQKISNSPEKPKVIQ
# Run description: ALK1-Kinase Flashplate-Assay
# Experimental conditions: 0.5 μM ATP, biotinylated α-casein substrate; read-out: Assay 1 (ALK1-Kinase Flashplate-Assay IC50 class)
pIC50: −log10 of the molar value.
Consider the following compounds and their measured pIC50 readings.
Observed property: pIC50

>  <Compound>
Clc1cccc(-c2cnn3ccc(NCc4cccnc4)nc23)c1

>  <Observed property>
pIC50

>  <Measurement>
5.00 to 6.00

$$$$
>  <Compound>
COc1ccc(-c2cnn3ccc(Nc4ccc(O)cc4)nc23)c(OC)c1

>  <Observed property>
pIC50

>  <Measurement>
5.00 to 6.00

$$$$
>  <Compound>
COc1ccc(-c2cnn3ccc(Nc4ccccc4)nc23)cc1OC

>  <Observed property>
pIC50

>  <Measurement>
5.00 to 6.00

$$$$
>  <Compound>
Cc1ccc(Nc2ccn3ncc(-c4cccc(NS(C)(=O)=O)c4)c3n2)cc1NS(C)(=O)=O

>  <Observed property>
pIC50

>  <Measurement>
> 6.00

$$$$
>  <Compound>
O=C(O)c1ccc(-c2cnn3ccc(Nc4ccccc4)nc23)cc1

>  <Observed property>
pIC50

>  <Measurement>
5.00 to 6.00

$$$$
>  <Compound>
COc1cccc(-c2cnn3ccc(Nc4ccc(OC)nc4)nc23)c1

>  <Observed property>
pIC50

>  <Measurement>
> 6.00

$$$$
>  <Compound>
Clc1cccc(-c2cnn3ccc(NCc4ccncc4)nc23)c1

>  <Observed property>
pIC50

>  <Measurement>
> 6.00

$$$$
>  <Compound>
COc1cncc(-c2cnn3ccc(NCCO)nc23)c1

>  <Observed property>
pIC50

>  <Measurement>
> 6.00

$$$$
>  <Compound>
CC(C)c1ccc(Nc2ccn3ncc(-c4cccc(C(=O)NCCN(C)C)c4)c3n2)cc1

>  <Observed property>
pIC50

>  <Measurement>
> 6.00

$$$$
>  <Compound>
c1cncc(CNc2ccn3ncc(-c4ccc5c(c4)OCO5)c3n2)c1

>  <Observed property>
pIC50

>  <Measurement>
5.00 to 6.00

$$$$
>  <Compound>
Fc1ccc(-c2cnn3ccc(NCc4ccncc4)nc23)cc1

>  <Observed property>
pIC50

>  <Measurement>
> 6.00

$$$$
>  <Compound>
O=C(NCCO)c1cccc(-c2cnn3ccc(Nc4ccc(N5CCOCC5)cc4)nc23)c1

>  <Observed property>
pIC50

>  <Measurement>
5.00 to 6.00

$$$$
>  <Compound>
COc1ccc(Nc2ccn3ncc(-c4ccc(OC)c(OC)c4)c3n2)cn1

>  <Observed property>
pIC50

>  <Measurement>
> 6.00

$$$$
>  <Compound>
Oc1cccc(-c2cnn3ccc(Nc4ccccc4)nc23)c1

>  <Observed property>
pIC50

>  <Measurement>
5.00 to 6.00

$$$$
>  <Compound>
c1cc(N2CCOCC2)ccc1Nc1ccn2ncc(-c3ccc4c(c3)OCO4)c2n1

>  <Observed property>
pIC50

>  <Measurement>
5.00 to 6.00

$$$$
>  <Compound>
NC(=O)c1cccc(-c2cnn3ccc(Nc4ccc(N5CCOCC5)cc4)nc23)c1

>  <Observed property>
pIC50

>  <Measurement>
> 6.00

$$$$
>  <Compound>
Cn1cc(-c2cnn3ccc(NC4CCC(O)CC4)nc23)cn1 (stereo not shown)

>  <Observed property>
pIC50

>  <Measurement>
5.00 to 6.00

$$$$
>  <Compound>
COc1cc(-c2cnn3ccc(NCCN(C)C)nc23)cc(OC)c1OC

>  <Observed property>
pIC50

>  <Measurement>
5.00 to 6.00

$$$$
>  <Compound>
COc1cc(-c2cnn3ccc(NC4CCC(O)CC4)nc23)cc(OC)c1OC (stereo not shown)

>  <Observed property>
pIC50

>  <Measurement>
> 6.00

$$$$
>  <Compound>
COc1cc(-c2cnn3ccc(Nc4ccccc4)nc23)cc(OC)c1OC

>  <Observed property>
pIC50

>  <Measurement>
> 6.00

$$$$
>  <Compound>
OC1CCC(Nc2ccn3ncc(-c4cccnc4)c3n2)CC1 (stereo not shown)

>  <Observed property>
pIC50

>  <Measurement>
5.00 to 6.00

$$$$
>  <Compound>
CS(=O)(=O)Nc1cccc(-c2cnn3ccc(Nc4ccc(N5CCOCC5)cc4)nc23)c1

>  <Observed property>
pIC50

>  <Measurement>
> 6.00

$$$$
>  <Compound>
c1cncc(CNc2ccn3ncc(-c4ccsc4)c3n2)c1

>  <Observed property>
pIC50

>  <Measurement>
5.00 to 6.00

$$$$
>  <Compound>
Oc1ccc(Nc2ccn3ncc(-c4ccc(O)cc4)c3n2)cc1

>  <Observed property>
pIC50

>  <Measurement>
> 6.00

$$$$
>  <Compound>
Cn1cc(-c2cnn3ccc(Nc4ccc(N5CCOCC5)cc4)nc23)cn1

>  <Observed property>
pIC50

>  <Measurement>
5.00 to 6.00

$$$$
>  <Compound>
COc1ccc(-c2cnn3ccc(NCc4ccncc4)nc23)cc1OC

>  <Observed property>
pIC50

>  <Measurement>
> 6.00

$$$$
>  <Compound>
Oc1ccc(-c2cnn3ccc(Nc4ccccc4)nc23)cc1

>  <Observed property>
pIC50

>  <Measurement>
5.00 to 6.00

$$$$
>  <Compound>
Cc1ccc(S(=O)(=O)Nc2ccc(Nc3ccn4ncc(-c5ccncc5)c4n3)cc2)cc1

>  <Observed property>
pIC50

>  <Measurement>
> 6.00

$$$$
>  <Compound>
Cc1ccc(Nc2ccn3ncc(-c4cccc(CO)c4)c3n2)cc1NS(C)(=O)=O

>  <Observed property>
pIC50

>  <Measurement>
5.00 to 6.00

$$$$
>  <Compound>
c1cc(-c2cnn3ccc(Nc4ccc(N5CCOCC5)cc4)nc23)cs1

>  <Observed property>
pIC50

>  <Measurement>
5.00 to 6.00

$$$$
>  <Compound>
COc1cc(-c2cnn3ccc(Nc4ccc(C(C)C)cc4)nc23)cc(OC)c1OC

>  <Observed property>
pIC50

>  <Measurement>
> 6.00

$$$$
>  <Compound>
c1ccc2c(-c3cnn4ccc(Nc5ccc(N6CCOCC6)cc5)nc34)cccc2c1

>  <Observed property>
pIC50

>  <Measurement>
5.00 to 6.00

$$$$
>  <Compound>
OC1CCC(Nc2ccn3ncc(-c4ccc(F)c(Cl)c4)c3n2)CC1 (stereo not shown)

>  <Observed property>
pIC50

>  <Measurement>
5.00 to 6.00

$$$$
>  <Compound>
c1csc(-c2cnn3ccc(Nc4ccc(N5CCOCC5)cc4)nc23)c1

>  <Observed property>
pIC50

>  <Measurement>
5.00 to 6.00

$$$$
>  <Compound>
N#Cc1ccc(-c2cnn3ccc(NCCO)nc23)cc1

>  <Observed property>
pIC50

>  <Measurement>
5.00 to 6.00

$$$$
>  <Compound>
COc1cc(Nc2ccn3ncc(-c4cccc(C(C)=O)c4)c3n2)cc(OC)c1OC

>  <Observed property>
pIC50

>  <Measurement>
5.00 to 6.00

$$$$
>  <Compound>
OCCNc1ccn2ncc(-c3ccc(O)cc3)c2n1

>  <Observed property>
pIC50

>  <Measurement>
5.00 to 6.00

$$$$
